Tested on: A53T a-syn expressing HEK293 cells
Experiment: Cell Titer-Glo cell viability, A53T a-syn expressing cells
Assay type: cell-based, human
Settings: A53T, MG132 10 μM, 72 h, replicate 2
Field: Cell viability. Provide a value for each of the substances that follow.
Write no unit; give the number alone.

Field request: Cell viability | item: DEEIERQLKALG [PDpep1.3] 9100

Field request: Cell viability | item: EIERQLKALG [PDpep1.2] 6200

Field request: Cell viability | item: IPIQLKA [PDpep1, initial screen hit peptide IPIQLKA] 5200

Field request: Cell viability | item: IERQLKA [PDpep1.1] 6200
